target: Neuropeptide FF receptor 1 (Homo sapiens, UniProt Q9GZQ6, Y309A); test: Agonist activity at human NPFF1 receptor Y7.33A mutant assessed as [3H]inositol phosphate accumulation after 2 hrs by liquid scintillation counting
Sequence (Q9GZQ6 whole entry Y309A): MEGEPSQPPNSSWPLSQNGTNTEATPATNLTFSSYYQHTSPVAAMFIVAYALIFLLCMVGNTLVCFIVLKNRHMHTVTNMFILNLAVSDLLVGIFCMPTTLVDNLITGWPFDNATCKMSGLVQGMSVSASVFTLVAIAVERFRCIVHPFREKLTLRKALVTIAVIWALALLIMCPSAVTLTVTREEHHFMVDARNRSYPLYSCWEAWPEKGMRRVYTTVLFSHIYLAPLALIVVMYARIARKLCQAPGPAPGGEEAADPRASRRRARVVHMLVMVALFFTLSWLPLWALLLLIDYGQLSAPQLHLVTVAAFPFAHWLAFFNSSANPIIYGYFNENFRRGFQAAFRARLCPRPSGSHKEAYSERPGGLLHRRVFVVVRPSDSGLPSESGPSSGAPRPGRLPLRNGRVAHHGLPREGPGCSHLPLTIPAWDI
READOUT_KIND: pEC50
In plain terms, pEC50 is the concentration in mol/L turned into minus its base-10 logarithm.

Query: # return recorded pEC50 for entry `N=C(N)N/N=C/c1ccc(-c2ccc(Br)cc2C(F)(F)F)o1`
Reply: 5.34

---

Known EC50 of a selection of molecules
target: Neuropeptide FF receptor 2 (Homo sapiens, UniProt Q9Y5X5, E310A); test: Agonist activity at human NPFF2 receptor E5.27A mutant assessed as [3H]inositol phosphate accumulation after 2 hrs by liquid scintillation counting
Sequence (Q9Y5X5 whole entry E310A): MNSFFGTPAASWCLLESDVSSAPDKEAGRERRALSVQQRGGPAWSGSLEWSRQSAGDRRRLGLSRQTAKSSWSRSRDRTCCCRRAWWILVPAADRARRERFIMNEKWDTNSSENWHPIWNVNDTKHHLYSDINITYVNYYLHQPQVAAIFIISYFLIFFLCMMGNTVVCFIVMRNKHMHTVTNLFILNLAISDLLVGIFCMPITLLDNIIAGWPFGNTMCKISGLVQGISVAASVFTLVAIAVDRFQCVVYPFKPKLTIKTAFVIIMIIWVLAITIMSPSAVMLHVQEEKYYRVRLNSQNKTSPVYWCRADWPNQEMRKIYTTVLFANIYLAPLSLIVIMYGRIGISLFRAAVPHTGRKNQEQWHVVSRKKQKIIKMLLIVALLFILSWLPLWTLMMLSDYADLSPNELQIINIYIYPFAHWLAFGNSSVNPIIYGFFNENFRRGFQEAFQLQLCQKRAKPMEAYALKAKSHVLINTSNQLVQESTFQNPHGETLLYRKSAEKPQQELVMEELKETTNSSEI

Query: # return recorded EC50 for entry `N=C(N)N/N=C/C12CC3CC(CC(C3)C1)C2`
Reply: > 10 µM

Query: # return recorded EC50 for entry `N=C(N)N/N=C/c1ccc(-c2ccc(Br)cc2C(F)(F)F)o1`
Reply: > 10 µM

---

target: Neuropeptide FF receptor 2 (Homo sapiens, UniProt Q9Y5X5, Y417A); assay: Agonist activity at human NPFF2 receptor F/Y7.35A mutant assessed as [3H]inositol phosphate accumulation after 2 hrs by liquid scintillation counting
Sequence (Q9Y5X5 whole entry Y417A): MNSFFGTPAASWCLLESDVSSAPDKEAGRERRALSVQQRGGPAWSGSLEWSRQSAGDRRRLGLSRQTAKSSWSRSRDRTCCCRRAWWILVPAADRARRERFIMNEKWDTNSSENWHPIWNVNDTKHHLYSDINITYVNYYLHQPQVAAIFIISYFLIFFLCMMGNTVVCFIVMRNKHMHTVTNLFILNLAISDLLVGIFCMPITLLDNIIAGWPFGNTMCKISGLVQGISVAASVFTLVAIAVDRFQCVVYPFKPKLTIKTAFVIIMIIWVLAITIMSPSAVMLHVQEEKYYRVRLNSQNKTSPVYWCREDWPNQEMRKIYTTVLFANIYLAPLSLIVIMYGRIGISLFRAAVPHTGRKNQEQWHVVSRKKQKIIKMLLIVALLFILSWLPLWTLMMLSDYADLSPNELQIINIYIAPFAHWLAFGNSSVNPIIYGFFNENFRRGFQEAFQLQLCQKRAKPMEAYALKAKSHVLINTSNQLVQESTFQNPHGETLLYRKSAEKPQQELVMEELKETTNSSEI
Known EC50 of a selection of compounds
I only need the number, in nM, no unit after it.

Example results:
> print(dat)
                         structure.notation                               target.desc  readout.kind  reported.result
1  N=C(N)N/N=C/c1ccc(-c2ccc(Br)cc2C(F)(F)F)o1  Neuropeptide FF receptor 2 (Homo sapiens, UniProt Q9Y5X5, Y417A)          EC50             1260
2  NC(=O)[C@H](Cc1ccccc1)NC(=O)[C@H](CCCN=C(N)N)NC(=O)C12CC3CC(CC(C3)C1)C2  Neuropeptide FF receptor 2 (Homo sapiens, UniProt Q9Y5X5, Y417A)          EC50              472
3          N=C(N)N/N=C/C12CC3CC(CC(C3)C1)C2  Neuropeptide FF receptor 2 (Homo sapiens, UniProt Q9Y5X5, Y417A)          EC50              301

With those in mind, consider the next compound.
Query: # return recorded EC50 for entry `N=C(N)NCCC[C@@H](NC(=O)C(c1ccccc1)c1ccccc1)C(=O)NCc1ccc(O)cc1`
Reply: 113

---

biological target: Neuropeptide FF receptor 2 (Homo sapiens, UniProt Q9Y5X5, Y415A); experiment: Agonist activity at human NPFF2 receptor Y7.33A mutant assessed as [3H]inositol phosphate accumulation after 2 hrs by liquid scintillation counting
Sequence (Q9Y5X5 whole entry Y415A): as the sequence (Q9Y5X5 whole entry E310A) above, with A310E, Y415A counted along it
READOUT_KIND: pEC50
In plain terms, pEC50 is the concentration in mol/L turned into minus its base-10 logarithm.

Query: # return recorded pEC50 for entry `N=C(N)N/N=C/C12CC3CC(CC(C3)C1)C2`
Reply: 5.08

---

Known EC50 of a selection of compounds
target: Neuropeptide FF receptor 2 (Homo sapiens, UniProt Q9Y5X5); assay: Agonist activity at human NPFF2 receptor expressed in COS1 cells assessed as [3H]inositol phosphate accumulation after 2 hrs by liquid scintillation counting
Sequence (Q9Y5X5 whole entry): as the sequence (Q9Y5X5 whole entry Y417A) above, with A417Y counted along it
I only need the number, in nM, no unit after it.

> print(dat)
                         structure.notation                               target.desc  reported.result
1          N=C(N)N/N=C/C12CC3CC(CC(C3)C1)C2  Neuropeptide FF receptor 2 (Homo sapiens, UniProt Q9Y5X5)              298
2  N=C(N)NCCC[C@@H](NC(=O)C(c1ccccc1)c1ccccc1)C(=O)NCc1ccc(O)cc1  Neuropeptide FF receptor 2 (Homo sapiens, UniProt Q9Y5X5)              233
3              N=C(N)N/N=C/c1ccc(Br)c(Br)c1  Neuropeptide FF receptor 2 (Homo sapiens, UniProt Q9Y5X5)             2190
4  NC(=O)[C@H](Cc1ccccc1)NC(=O)[C@H](CCCN=C(N)N)NC(=O)C12CC3CC(CC(C3)C1)C2  Neuropeptide FF receptor 2 (Homo sapiens, UniProt Q9Y5X5)              379

With those in mind, consider the next compound.
Query: # return recorded EC50 for entry `N=C(N)N/N=C/c1ccc(-c2ccc(Br)cc2C(F)(F)F)o1`
Reply: 1660

This collection of values is drawn from ChEMBL document CHEMBL2163262.
